Dear all, this message contains pKi results, target or system hCA II (Homo sapiens).
pKi: −log10 of the molar value.
Observation type: pKi

- COC(=O)Cc1c(C)c2ccc(OCC(=O)c3ccc(Br)cc3)c(C)c2oc1=O [EMAC10163c]: < 4.00
- COC(=O)Cc1c(C)c2ccc(OCC(=O)c3ccc([N+](=O)[O-])cc3)c(C)c2oc1=O [EMAC10163e]: < 4.00
- COc1cccc(-c2coc3c(C)c4oc(=O)c(CC(=O)O)c(C)c4cc23)c1 [EMAC10164k]: < 4.00

====

# Study system: hCA I (Homo sapiens, UniProt P00915)
# Sequence (P00915 whole entry): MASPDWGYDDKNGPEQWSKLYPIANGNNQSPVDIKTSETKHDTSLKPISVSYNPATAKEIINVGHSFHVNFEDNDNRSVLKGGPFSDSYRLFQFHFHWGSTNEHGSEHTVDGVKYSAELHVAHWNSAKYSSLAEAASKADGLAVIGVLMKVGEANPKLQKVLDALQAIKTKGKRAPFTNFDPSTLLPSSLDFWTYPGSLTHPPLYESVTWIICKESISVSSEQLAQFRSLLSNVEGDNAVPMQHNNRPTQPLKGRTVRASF
// Ki lookup, one value per entry
Observation type: Ki

• Cc1c(CC(=O)O)c(=O)oc2c(C)c3occ(-c4ccc(Cl)cc4)c3cc12 [EMAC10164j] = > 100 µM
• COC(=O)Cc1c(C)c2ccc(OCC(=O)c3ccc(Br)cc3)c(C)c2oc1=O [EMAC10163c] = > 100 µM
• COC(=O)Cc1c(C)c2ccc(OCC(=O)c3cccc([N+](=O)[O-])c3)c(C)c2oc1=O [EMAC10163f] = > 100 µM
• COC(=O)Cc1c(C)c2ccc(OCC(=O)c3cccc(OC)c3)c(C)c2oc1=O [EMAC10163k] = > 100 µM
• COC(=O)Cc1c(C)c2ccc(OCC(=O)c3ccc(F)cc3F)c(C)c2oc1=O [EMAC10163h] = > 100 µM
• COC(=O)Cc1c(C)c2ccc(OCC(=O)c3ccc(OC)cc3)c(C)c2oc1=O [EMAC10163b] = > 100 µM
• Cc1c(CC(=O)O)c(=O)oc2c(C)c3occ(-c4ccc(Br)cc4)c3cc12 [EMAC10164c] = > 100 µM
• COC(=O)Cc1c(C)c2ccc(OCC(=O)c3ccc(Cl)cc3)c(C)c2oc1=O [EMAC10163j] = > 100 µM
• Cc1c(CC(=O)O)c(=O)oc2c(C)c3occ(-c4ccc(F)cc4F)c3cc12 [EMAC10164h] = > 100 µM
• COc1cccc(-c2coc3c(C)c4oc(=O)c(CC(=O)O)c(C)c4cc23)c1 [EMAC10164k] = > 100 µM
• COC(=O)Cc1c(C)c2ccc(OCC(=O)c3ccc(F)cc3)c(C)c2oc1=O [EMAC10163d] = > 100 µM
• COc1ccc(-c2coc3c(C)c4oc(=O)c(CC(=O)O)c(C)c4cc23)cc1 [EMAC10164b] = > 100 µM
• COC(=O)Cc1c(C)c2ccc(OCC(=O)c3ccccc3)c(C)c2oc1=O [EMAC10163i] = > 100 µM
• Cc1c(CC(=O)O)c(=O)oc2c(C)c3occ(-c4ccccc4)c3cc12 [EMAC10164i] = > 100 µM
• COC(=O)Cc1c(C)c2ccc(OCC(=O)c3ccc([N+](=O)[O-])cc3)c(C)c2oc1=O [EMAC10163e] = > 100 µM
• Cc1c(CC(=O)O)c(=O)oc2c(C)c3occ(-c4ccc(-c5ccccc5)cc4)c3cc12 [EMAC10164g] = > 100 µM
• Cc1c(CC(=O)O)c(=O)oc2c(C)c3occ(-c4ccc(F)cc4)c3cc12 [EMAC10164d] = > 100 µM
• Cc1ccc(-c2coc3c(C)c4oc(=O)c(CC(=O)O)c(C)c4cc23)cc1 [EMAC10164a] = > 100 µM
• COC(=O)Cc1c(C)c2ccc(OCC(=O)c3ccc(C)cc3)c(C)c2oc1=O [EMAC10163a] = > 100 µM
• COC(=O)Cc1c(C)c2ccc(OCC(=O)c3ccc(-c4ccccc4)cc3)c(C)c2oc1=O [EMAC10163g] = > 100 µM
